- TEST_TARGET: T1, hu-MCSP(D3 domain)-avi-his (human, UniProt Q6UVK1 1582-2224, biotinylated where used for selection or for coupling to the SA chip)
- T1 construct: also called human MCSP(D3 domain)-avi-his; human MCSP D3
- T1 sequence: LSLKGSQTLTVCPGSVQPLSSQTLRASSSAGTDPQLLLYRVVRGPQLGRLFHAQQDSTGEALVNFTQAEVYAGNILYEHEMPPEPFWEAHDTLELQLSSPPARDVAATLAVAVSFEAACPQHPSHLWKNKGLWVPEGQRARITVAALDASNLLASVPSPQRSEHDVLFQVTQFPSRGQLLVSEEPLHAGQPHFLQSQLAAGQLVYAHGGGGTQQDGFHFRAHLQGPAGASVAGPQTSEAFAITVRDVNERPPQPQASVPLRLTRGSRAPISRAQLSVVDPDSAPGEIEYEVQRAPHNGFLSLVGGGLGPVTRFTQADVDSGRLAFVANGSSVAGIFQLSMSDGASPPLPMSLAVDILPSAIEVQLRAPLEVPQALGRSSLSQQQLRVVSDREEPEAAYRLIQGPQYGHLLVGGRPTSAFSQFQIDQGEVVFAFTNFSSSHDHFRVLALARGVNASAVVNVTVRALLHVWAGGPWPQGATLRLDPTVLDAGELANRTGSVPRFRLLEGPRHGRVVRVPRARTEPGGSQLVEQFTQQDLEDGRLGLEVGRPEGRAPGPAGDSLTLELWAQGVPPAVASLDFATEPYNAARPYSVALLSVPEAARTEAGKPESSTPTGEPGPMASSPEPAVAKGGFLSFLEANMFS
- ASSAY_NAME: SPR (ProteOn XPR36), IgG KD against parental M4-3/ML2
QUANTITY: Comparative binding affinity - Fold increase over parent
The reply should read as a number followed by its unit.

{"BINDER": "M4-3(B8)/ML2 (IgG) (antibody, V domains shown, Human IgG1 format) VH: QVQLQESGPGLVKPSQTLSLTCTVSGGSITSGYYWNWIRQHPGKGLEWIGYITFDGRNNYNPSLKSRVTISRDTSKNQFSLKLSSVTAADTAVYYCADFDYWGQGTLVTVSS VL: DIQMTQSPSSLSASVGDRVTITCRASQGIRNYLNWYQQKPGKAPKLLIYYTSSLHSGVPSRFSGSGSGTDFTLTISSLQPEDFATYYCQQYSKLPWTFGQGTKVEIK", "VALUE_OBSERVED": "2.2 fold"}
{"BINDER": "M4-3/ML2 (C5/G3) (IgG) (antibody, V domains shown, Human IgG1 format) VH: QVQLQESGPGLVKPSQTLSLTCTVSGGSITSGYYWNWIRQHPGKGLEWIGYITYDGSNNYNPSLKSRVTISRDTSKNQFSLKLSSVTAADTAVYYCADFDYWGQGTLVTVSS VL: DIQMTQSPSSLSASVGDRVTITCRASRGIREYLNWYQQKPGKAPKLLIYYTGSLHSGVPSRFSGSGSGTDFTLTISSLQPEDFATYYCQQYSALPWTFGQGTKVEIK", "VALUE_OBSERVED": "2.9 fold"}

Continue with the binder presented below.
input: Entry M4-3(A7)/ML2 (IgG) (antibody, V domains shown, Human IgG1 format) VH: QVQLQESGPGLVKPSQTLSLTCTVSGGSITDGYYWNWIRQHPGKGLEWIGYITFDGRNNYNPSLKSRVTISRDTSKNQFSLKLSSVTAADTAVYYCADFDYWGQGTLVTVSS VL: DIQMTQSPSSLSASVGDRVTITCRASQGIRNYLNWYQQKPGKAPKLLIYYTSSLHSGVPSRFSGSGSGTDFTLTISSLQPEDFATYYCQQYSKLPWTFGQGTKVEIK : reported Comparative binding affinity - Fold increase over parent = ?
output: 2.5 fold
